Experiment Summary: head-to-tail lactamisation (amide bond) of side-chain-protected linear peptides; HATU (3 equiv)/HOAt (3 equiv)/2,4,6-collidine (3 equiv); linear peptide + collidine added dropwise to HATU/HOAt, 5 h, argon
Test Conditions: the molecule shown is the open-chain precursor, 14-membered ring, DCM/DMF 15:1, 25.0 °C
Experimental Readout: ring closure, isolated yield (%)

• Cc1ccccc1NC(=O)Nc1ccc(CC(=O)N2C[C@@H](NC(=O)[C@@H](N)CC(=O)OC(C)(C)C)C[C@H]2C(=O)N[C@@H](CCCNC(=N)NS(=O)(=O)c2c(C)c(C)c3c(c2C)CCC(C)(C)O3)C(=O)NCC(=O)O)cc1 [H-Asp(tBu)-Amp(MPUPA)-Arg(Pmc)-Gly-OH] = 43
• Cc1ccccc1NC(=O)Nc1ccc(CC(=O)N2C[C@@H](NC(=O)[C@@H](N)CC(C)C)C[C@H]2C(=O)N[C@H](C(=O)N[C@@H](CCC(=O)OC(C)(C)C)C(=O)O)C(C)C)cc1 [H-Leu-Amp(MPUPA)-Val-Glu(tBu)-OH] = 73
• Cc1ccccc1NC(=O)Nc1ccc(CC(=O)N2C[C@@H](NC(=O)[C@@H](N)CC(C)C)C[C@H]2C(=O)N[C@H](C(=O)N[C@@H](CC(=O)OC(C)(C)C)C(=O)O)C(C)C)cc1 [H-Leu-Amp(MPUPA)-Val-Asp(tBu)-OH] = 73
• Cc1ccccc1NC(=O)Nc1ccc(CC(=O)N2C[C@@H](NC(=O)[C@@H](N)C(C)C)C[C@H]2C(=O)N[C@@H](CC(C)C)C(=O)N[C@@H](CC(=O)OC(C)(C)C)C(=O)O)cc1 [H-Val-Amp(MPUPA)-Leu-Asp(tBu)-OH] = 69
• Cc1ccccc1NC(=O)Nc1ccc(CC(=O)N2C[C@@H](NC(=O)[C@@H](N)C(C)C)C[C@H]2C(=O)N[C@@H](CC(C)C)C(=O)N[C@@H](CCC(=O)OC(C)(C)C)C(=O)O)cc1 [H-Val-Amp(MPUPA)-Leu-Glu(tBu)-OH] = 65
